From: patent US20050154189A1

- Target Or System: T1, Soluble CD28-Ig (human, UniProt P10747 19-152, biotin-conjugated (NHS-biotin) in the labelled-ligand FACS assays)
- T1 construct: extracellular domain; Bought from R&D Systems; also called sCD28-Ig; CD28-Ig Fc; not shown: Fc portion of human IgG1
- Protocol Summary: two-colour FACS profile on transfected cells; score of preference for CD28-Ig over CTLA-4-Ig vs WT hB7-1
Quantity Measured: Binding Score
Give only the figure.

The following binders have reported results that may help.
Binder: Round 2 CD28F12-5* (ligand) ITPKSVTKRVKETVMLSCDYNTSTEELTSLRIYWQKDSKMVLAILPGKVQVWPEYKNRTITDMNDNPRIVILALRLSDSGTYTCVIQKPDLKGAYKLEHLASVRLMIRADFPVPSITDIGHPAPNVKRIRCSASGDFPEPRLAWMEDGEELNAVNTTVDQDLDTELYSVSSELDFNVTNNHSIVCLIKYGELSVSQIFPWSKPKQEPPIDQLPFWVIIPVSGALVLTAVVLYCLACRHVARWKRTRRNEETVGTERLSPIYLGSAQSSG
Binding Score: 1
//
Binder: Round 2 CD28B6-3 (ligand) ITPKSVTKRVKETVMLSCDYNTSTEELTSLRIYWQKDSKMVLAILPGKVQVWPEYKNRTITDMNDNPRIVILALRLSDSGTYTCVIQKPDLKGAYKLEHLTSVRLMIRADFPVPTINDLGNPSPNIRRLICSTSGGFPRPHLYWLENGEELNATNTTLSQDPETKLYMISSELDFNMTSNHSFLCLVKYGDLTVSQTFYWQESKPTPSANQHLTWTIIIPVSAFGISVIIAVILTCLTCRNAAIRRQRRENEVKMQSCSQSP
Binding Score: 1

Give Binding Score for the following binder: Round 2 CD28BP-14 (ligand) GISQVTKSVKEMAALSCDYNISIDELARMRIYWQKDQQMVLSIISGQVEVWPEYKNRTITDMNDNPRIVILALRLSDSGTYTCVIQKPVLKGAYKLEHLASVRLMIRADFPVPTINDLGNPSPNIRRLICSTSGGFPRPHLYWLENGEELNATNTTVSQDPGTELYMISSELDFNVTNNHSIVCLIKYGELSVSQIFPWSKPKQEPPIDQLPFWVIIPVSGALVLTAVVLYCLACRHVARWKRTRRNEETVGTERLSPIYLGSAQSSG
2

Give Binding Score for the following binder: Round 2 CD28C8-6 (ligand) ITPKSVTKRVKETVMLSCDYNTSTEELTSLRIYWQKDSKMVLAILPGKVQVWPEYKNRTITDMNDNPRIVILALRLSDSGTYTCVIQKPVLKGAYKLEHLASVRLMIRADFPVPTINDLGNPSPNIRRLICSTSGGFPRPHLYWLENGEELNATNTTVSQDPGTELYMISSELGFNVTNNHSIVCLIKYGELSVSQIFPWSKPKQEPPIDQLPFWVIIPVSGALVLTAVVLYCLACRHVARWKRTRRNEETVGTERLSPIYLGSAQSSG
2

Give Binding Score for the following binder: Round 2 CD28F7-2 (ligand) ITPKSVTKRVKETVMLSCDYSTSTEELTSLRIYWQKDSKMVLAILPGKVQVWPEYKNRTITDMNDNPRIVILALRLSDSGTYTCVIQKPVLKGAYKLEHLASVRLMIRADFPVPTINDLGNPSPNIRRLICSTSGGFPEPRLAWMEDGEELNAVNTTVDQDLDTELYSVSSELDFNVTNNHSIVCLIKYGELSVSQIFPWSKPKQEPPIDQLPFWVIIPVSGALVLTAVVLYCLACRHVARWKRTRRNEETVGTERLSPIYLGSAQSSG
2

Give Binding Score for the following binder: Round 2 CD28F3-5 (ligand) SGITPKSVTKRVKETVMLSCDYNTSTEELTSLRIYWQKDSKMVLAILPGKVQVWPEYKNRTITDMNDNPRIVILALRLSDSGTYTCVVQKNENGSFRREHLTSVTLSIRADFPVPSITDIGHPAPNVKRIRCSASGGFPEPRLAWMEDGEELNAVNTTVDQDLDTELYSVSSELDFNVTNNHSIVCLIKYGELSVSQIFPWSKPKQEPPIDQLPFWVIIPVSGALVLTAVVLYCLACRHVARWKRTRRNEETVGTERLSPIYLGSAQSSG
0

Give Binding Score for the following binder: Round 2 CD28F8-4 (ligand) ITPKSVTKRVKETVMLSCDYSTSTEELTSLRIYWQKDSKMVLAILPGKVQVWPEYKNRTITDMNDNPRIVILALRLSDSGTYTCVIQKPVLKGAYKLEHLASVRLMIRADFPVPTINDLGNPSPNIRRLICSTSGGFPRPHLYWLENGEELNATNTTLSQDPETKLYMISSELDFNVTNNHSIVCLIKYGELSVSQIFPWSKPKQEPPIDQLPFWVIIPVSGALVLTAVVLYCLACRHVARWKRTRRNEETVGTERLSPIYLGSAQSSG
1

Give Binding Score for the following binder: Round 2 CD28F11-8 (ligand) ITPKSVTKRVKETVMLSCDYNTSTEELTSLRIYWQKDSKMVLAILPGKVQVWPEYKNRTITDMNDNPRIVILALRLSDSGTYTCVIQKPVLKGAYKLEHLTSVRLMIRADFPVPTINDLGNPSPNIRRLICSTSGGFPRPHLYWLENGEELNATNTTLSQDPETKLYMISSELDFNMTSNLCLVKYGDLTVSQTFYWQESKPTPSANQHLTWTIIIPVSAFGISVIIAVILTCLTCRNAAIRRQRRENEVEMQSCSQSP
0

Give Binding Score for the following binder: Round 2 CD28C11-5 (ligand) ITPKSVTKRVKETVMLSCDYNTSTEELTSLRIYWQKDSKMVLAILPGKVQVWPEYKNRTITDMNDNPRIVILALRLSDSGTYTCVIQKPVLKGAYKLEHLTSVRLMIRADFPVPTINDLGNPSPNIRRLICSTSGGFPRPHLYWLENGEELNATNTTVSQDPGTELYMISSELDFNVTNNHSIACLIKYGELSVSQIFPWSKPKQEPPIDQLPFWVIIPVSGALVLTAVVLYCLACRHVARWKRTRRNEETVGTERLSPIYLGSAQSSG
2
